- test_protocol: Antiproliferative activity against ARID1A/1B proficient human OVISE cells after 7 days by Cell-Titer Glo assay
- Format: functional, cell-based
- study_conditions: 168 h
measure: IC50

smiles_record | result
COC(=O)c1ccc([C@H]2c3[nH]c4ccccc4c3C[C@H](C(=O)OC)N2C(=O)CCl)cc1 | < 3 nM
